These measurements were taken from ChEMBL document CHEMBL5614384.

tested on: HeLa; experiment: Antiproliferative activity against human HeLa cells assessed as inhibition of cell growth incubated for 72 hrs by MTT assay; format: functional, cell-based
Please go through the items and note down their pIC50.
# log scale: pIC50 equals minus log10 of the concentration in mol/L

Memo: CC(=O)O[C@H](COC(=O)c1ccccc1)[C@H]1OC(=O)C=C[C@H]1OC(=O)/C=C/c1ccc([N+](=O)[O-])cc1 , reported pIC50: 4.88

Form: compound = CC(=O)O[C@H](COC(=O)c1ccccc1)[C@H]1OC(=O)C=C[C@H]1OS(=O)(=O)c1ccc(C)cc1 ; pIC50 = 4.80

In plain terms, CC(=O)OC[C@@H](OC(C)=O)[C@H]1OC(=O)C=C[C@H]1OCc1ccccc1 has a documented pIC50 of 5.21

O=C1C=C[C@@H](O)[C@@H]([C@@H](O)COC(=O)c2ccccc2)O1 yielded pIC50 of 5.33

What the record says about CC(=O)O[C@H](COC(=O)c1ccccc1)[C@H]1OC(=O)C=C[C@H]1OC(=O)c1c(Cl)cc(Cl)cc1Cl : pIC50 is 5.06

pIC50 reported for this compound CC1(C)O[C@H]2O[C@@H]3C=CC(=O)O[C@@H]3[C@H]2O1 : 5.22

Field pIC50 (entry COc1ccc(/C=C/C(=O)O[C@@H]2C=CC(=O)O[C@@H]2[C@@H](COC(=O)c2ccccc2)OC(C)=O)cc1 ) reads 4.81

Looking up CC(=O)O[C@@H](COC(=O)c1ccccc1)[C@H]1OC(=O)C=C[C@H]1OC(C)=O , I see its pIC50 listed as 5.17

----------
tested on: MCF7; assay: Antiproliferative activity against estrogen receptor positive human MCF7 cells assessed as inhibition of cell growth incubated for 72 hrs by MTT assay; assay type: functional, cell-based; settings: MCF7, 72 h
Assign IC50 to each entry below.
# unit: µM | format: bare number

CC(=O)OC[C@@H](O)[C@H]1OC(=O)C=C[C@H]1O yielded IC50 of 4.58

CC(=O)O[C@H](COC(=O)c1ccccc1)[C@H]1OC(=O)C=C[C@H]1OC(=O)C(c1ccccc1)c1ccccc1 yielded IC50 of 2.83

The compound listed as CC(=O)O[C@H](COC(=O)c1ccccc1)[C@H]1OC(=O)C=C[C@H]1OS(=O)(=O)c1ccc(C)cc1 has a reported IC50 of 11.3

Briefly, IC50 measured for CC1(C)O[C@H]2O[C@@H]3C=CC(=O)O[C@@H]3[C@H]2O1 : 8.26

----------
Answer each item with its documented IC50.
tested on: HeLa; assay: Antiproliferative activity against human HeLa cells assessed as inhibition of cell growth incubated for 72 hrs by MTT assay; type: functional, cell-based
Number in µM, nothing else.

Reported IC50 for CC(=O)O[C@H](COC(=O)c1ccccc1)[C@H]1OC(=O)C=C[C@H]1O[Si](c1ccccc1)(c1ccccc1)C(C)(C)C was 3.35

So, CC(=O)OC[C@@H](OC(C)=O)[C@H]1OC(=O)C=C[C@H]1OC(=O)c1ccccc1 ? Its IC50 was 10.8

// CC(=O)OC[C@@H](O)[C@H]1OC(=O)C=C[C@H]1O : IC50 value = 5.36

----------
system: HL-60; test: Antiproliferative activity against human HL-60 cells assessed as inhibition of cell growth incubated for 72 hrs by MTT assay; format: functional, cell-based; settings: HL-60, 72 h
Exercise: for every item that follows, state its recorded pIC50.
# pIC50: negative log10 of molar concentration; output just the value

get_value(item= COc1ccc(/C=C/C(=O)O[C@@H]2C=CC(=O)O[C@@H]2[C@@H](COC(=O)c2ccccc2)OC(C)=O)cc1OC , readout=pIC50) returns 5.24

Looking up COc1ccc(/C=C/C(=O)O[C@@H]2C=CC(=O)O[C@@H]2[C@@H](COC(=O)c2ccccc2)OC(C)=O)cc1 , I found its pIC50 recorded as 4.81

The measured pIC50 associated with CC(=O)OC[C@@H](OC(C)=O)[C@H]1OC(=O)C=C[C@H]1OC(=O)c1ccccc1 reads 5.36

Measured pIC50, CC(=O)O[C@H](COC(=O)c1ccccc1)[C@H]1OC(=O)C=C[C@H]1OC(=O)c1c(Cl)cc(Cl)cc1Cl : 4.64

The measured pIC50 associated with CC(=O)O[C@H](COC(=O)c1ccccc1)[C@H]1OC(=O)C=C[C@H]1OC(=O)/C=C/c1ccccc1 reads 5.20

pIC50 reading for O=C1C=C[C@@H](OCc2ccccc2)[C@@H]([C@@H](COC(=O)c2ccccc2)OCc2ccccc2)O1 : 5.48

For reference, reported pIC50 for CC(=O)O[C@@H](COC(=O)c1ccccc1)[C@H]1OC(=O)C=C[C@H]1OC(C)=O stands at 5.01
